As an illustration, consider measured pKi for compounds on Mu-type opioid receptor (Rattus norvegicus).
Sequence (P33535 whole entry): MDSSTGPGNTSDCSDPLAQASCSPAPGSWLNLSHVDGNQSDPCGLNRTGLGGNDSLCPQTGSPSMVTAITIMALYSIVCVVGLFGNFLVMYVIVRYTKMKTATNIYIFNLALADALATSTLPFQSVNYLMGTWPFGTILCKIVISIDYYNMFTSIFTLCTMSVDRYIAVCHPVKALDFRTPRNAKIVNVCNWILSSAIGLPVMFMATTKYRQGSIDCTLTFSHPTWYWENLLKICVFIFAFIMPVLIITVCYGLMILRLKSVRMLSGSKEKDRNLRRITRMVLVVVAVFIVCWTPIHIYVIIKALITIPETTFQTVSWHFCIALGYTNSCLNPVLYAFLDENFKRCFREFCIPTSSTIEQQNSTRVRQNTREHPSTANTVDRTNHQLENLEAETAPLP
# pKi is unitless: minus log10 of the molar concentration; print number only

Some compounds with recorded pKi:
recordsmiles=NC(=O)[C@@H](O)[C@H](Cc1ccccc1)NC(=O)[C@H](Cc1c[nH]c2ccccc12)NC(=O)[C@@H]1CCCN1C(=O)[C@@H](N)Cc1ccc(O)cc1 readoutnumber=8.00
recordsmiles=NC(=O)[C@@H](O)[C@H](Cc1ccccc1)NC(=O)[C@H](Cc1ccccc1)NC(=O)[C@@H]1CCCN1C(=O)[C@@H](N)Cc1ccc(O)cc1 readoutnumber=7.77
recordsmiles=NC(=O)[C@H](Cc1ccccc1)NC(=O)[C@H](O)[C@H](Cc1ccccc1)NC(=O)[C@@H]1CCCN1C(=O)[C@@H](N)Cc1ccc(O)cc1 readoutnumber=8.05
recordsmiles=NC(=O)C[C@H](Cc1ccccc1)NC(=O)[C@H](Cc1ccccc1)NC(=O)[C@@H]1CCCN1C(=O)[C@@H](N)Cc1ccc(O)cc1 readoutnumber=7.64

Report its pKi with Mu-type opioid receptor (Rattus norvegicus) as the test system: NC(=O)[C@@H](O)[C@@H](Cc1ccccc1)NC(=O)[C@H](Cc1ccccc1)NC(=O)[C@@H]1CCCN1C(=O)[C@@H](N)Cc1ccc(O)cc1
6.49

Provide pKi, recorded with Mu-type opioid receptor (Rattus norvegicus), of NC(=O)C[C@H](Cc1ccccc1)NC(=O)[C@H](Cc1c[nH]c2ccccc12)NC(=O)[C@@H]1CCCN1C(=O)[C@@H](N)Cc1ccc(O)cc1
8.00

* * *

target: Delta-type opioid receptor (Rattus norvegicus)
Sequence (P33533 whole entry): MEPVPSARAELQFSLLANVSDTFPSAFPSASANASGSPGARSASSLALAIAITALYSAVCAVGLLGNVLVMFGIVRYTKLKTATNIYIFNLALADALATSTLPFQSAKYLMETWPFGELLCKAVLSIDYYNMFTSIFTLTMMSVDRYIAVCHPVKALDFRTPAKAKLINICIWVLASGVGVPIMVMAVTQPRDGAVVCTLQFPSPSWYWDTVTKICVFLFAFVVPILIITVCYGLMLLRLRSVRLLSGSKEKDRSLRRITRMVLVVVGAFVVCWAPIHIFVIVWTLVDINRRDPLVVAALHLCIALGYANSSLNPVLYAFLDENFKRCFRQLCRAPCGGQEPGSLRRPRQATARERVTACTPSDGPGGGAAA
methodNotes: Displacement of [3H]DPDPE from rat cortex delta opioid receptor after 2.5 hrs by liquid scintillation counting analysis
pKi: −log10 of the molar value. Where a SMILES comes first, the peptide text is derived from it. [ ]: non-standard residue; d: D form. ξ: configuration not given here. Dmt = Cc1cc(O)cc(C)c1C[C@H](N)C(=O)O; ξTiq(1-COOH) = O=C(O)C1NCCc2ccccc21
Decision: pKi >= 6 yields rule met, all other cases yield rule not met.

Is pKi at least 6? Consider NC(=O)[C@H](Cc1ccccc1)NC(=O)C[C@H](Cc1ccccc1)NC(=O)[C@@H]1CCCN1C(=O)[C@@H](N)Cc1ccc(O)cc1
rule met

// inclusive: pKi at least 6? input: Cc1cc(O)cc(C)c1C[C@H](N)C(=O)N1CCc2ccccc2C1C(=O)N[C@@H](Cc1c[nH]c2ccccc12)C(=O)N[C@@H](Cc1ccccc1)C(N)=O (stereo partly specified) (H-[Dmt][ξTiq(1-COOH)]WF-NH2)
rule met

Given the entry NC(=O)[C@H](Cc1ccccc1)NC(=O)[C@H](O)[C@H](Cc1ccccc1)NC(=O)[C@@H]1CCCN1C(=O)[C@@H](N)Cc1ccc(O)cc1 , answer whether its pKi meets or surpasses 6.
rule not met

Does the reported pKi for NC(=O)C[C@H](Cc1ccccc1)NC(=O)[C@H](Cc1c[nH]c2ccccc12)NC(=O)[C@@H]1CCCN1C(=O)[C@@H](N)Cc1ccc(O)cc1 fall at or above the 6 mark?
rule not met

Is pKi for NC(=O)[C@H](Cc1ccccc1)NC(=O)[C@@H](O)[C@H](Cc1ccccc1)NC(=O)[C@@H]1CCCN1C(=O)[C@@H](N)Cc1ccc(O)cc1 at or above 6?
rule not met

* * *

Activity listing for selected compounds.
target: Delta-type opioid receptor (Homo sapiens)
Sequence (P41143 whole entry): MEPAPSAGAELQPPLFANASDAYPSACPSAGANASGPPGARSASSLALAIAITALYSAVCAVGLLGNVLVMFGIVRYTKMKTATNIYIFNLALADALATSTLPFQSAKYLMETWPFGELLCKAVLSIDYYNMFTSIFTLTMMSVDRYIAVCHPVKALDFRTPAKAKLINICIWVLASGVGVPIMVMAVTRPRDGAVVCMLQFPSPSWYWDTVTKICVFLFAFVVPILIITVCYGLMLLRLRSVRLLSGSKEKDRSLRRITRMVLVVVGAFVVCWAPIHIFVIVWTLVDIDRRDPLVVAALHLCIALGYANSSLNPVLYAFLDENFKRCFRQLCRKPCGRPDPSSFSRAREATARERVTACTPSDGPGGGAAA
methodNotes: Agonist activity at delta opioid receptor (unknown origin) expressed in CHO cells assessed as change in cell morphology at 3.3 uM measured over 30 mins by label free binding assay relative to DPDPE
Assay type: cell-based
Where a SMILES comes first, the peptide text is derived from it. [ ]: non-standard residue; d: D form. ξ: configuration not given here. Dmt = Cc1cc(O)cc(C)c1C[C@H](N)C(=O)O; ξTiq(1-COOH) = O=C(O)C1NCCc2ccccc21
Units required after the number.

compound="Cc1cc(O)cc(C)c1C[C@H](N)C(=O)N1CCc2ccccc2C1C(=O)N[C@@H](Cc1c[nH]c2ccccc12)C(=O)N[C@@H](Cc1ccccc1)C(N)=O (stereo partly drawn) (H-[Dmt][ξTiq(1-COOH)]WF-NH2)" resulttype=Activity result=26%

Give me measured Activity, please, for this compound: Cc1cc(O)cc(C)c1C[C@H](N)C(=O)N1CCc2ccccc2C1C(=O)N[C@@H](Cc1ccccc1)C(=O)N[C@@H](Cc1ccccc1)C(N)=O (stereo partly drawn) (H-[Dmt][ξTiq(1-COOH)]FF-NH2)
46%

Recall and state the measured Activity for NC(=O)[C@H](Cc1ccccc1)NC(=O)[C@H](Cc1ccccc1)NC(=O)[C@@H]1CCCN1C(=O)[C@@H](N)Cc1ccc(O)cc1 [ENDOMORPHIN 2] .
52%

Give the reported Activity for this compound. NC(=O)[C@H](Cc1ccccc1)NC(=O)[C@H](Cc1c[nH]c2ccccc12)NC(=O)[C@@H]1CCCN1C(=O)[C@@H](N)Cc1ccc(O)cc1
49%

Provide measured Activity value, entry: Cc1cc(O)cc(C)c1C[C@H](N)C(=O)N1CCc2ccccc2C1C(=O)N[C@@H](Cc1c[nH]c2ccccc12)C(=O)N[C@@H](Cc1ccccc1)[C@H](O)C(N)=O (stereo partly drawn)
45%

* * *

target: Delta-type opioid receptor (Homo sapiens)
methodNotes: Agonist activity at delta opioid receptor (unknown origin) expressed in CHO cells assessed as inhibition of forskolin-induced cAMP production at 500 nM after 30 mins by europium cryptate/d2 dye-based FRET analysis relative to DPDPE
Type: functional, cell-based
Where a SMILES comes first, the peptide text is derived from it. [ ]: non-standard residue; d: D form. ξ: configuration not given here. Dmt = Cc1cc(O)cc(C)c1C[C@H](N)C(=O)O; ξTiq(1-COOH) = O=C(O)C1NCCc2ccccc21
resultType: inhibition (%)
The answer is to be given in %; state only the numeric part.

molecule="Cc1cc(O)cc(C)c1C[C@H](N)C(=O)N1CCc2ccccc2C1C(=O)N[C@@H](Cc1c[nH]c2ccccc12)C(=O)N[C@@H](Cc1ccccc1)[C@H](O)C(N)=O (some centres undefined)" resulttype=inhibition outputunit=% readoutnumber=104
molecule="Cc1cc(O)cc(C)c1C[C@H](N)C(=O)N1CCc2ccccc2C1C(=O)N[C@@H](Cc1ccccc1)C(=O)N[C@@H](Cc1ccccc1)C(N)=O (some centres undefined) (H-[Dmt][ξTiq(1-COOH)]FF-NH2)" resulttype=inhibition outputunit=% readoutnumber=73
molecule="Cc1cc(O)cc(C)c1C[C@H](N)C(=O)N1CCc2ccccc2C1C(=O)N[C@@H](Cc1ccccc1)[C@@H](O)C(=O)N[C@@H](Cc1ccccc1)C(N)=O (some centres undefined)" resulttype=inhibition outputunit=% readoutnumber=66

Alright, here's another molecule for you.
Report measured inhibition on Delta-type opioid receptor (Homo sapiens); entry: Cc1cc(O)cc(C)c1C[C@H](N)C(=O)N1CCc2ccccc2C1C(=O)N[C@@H](Cc1c[nH]c2ccccc12)C(=O)N[C@@H](Cc1ccccc1)C(N)=O (some centres undefined) (H-[Dmt][ξTiq(1-COOH)]WF-NH2)
87

* * *

Where a SMILES comes first, the peptide text is derived from it. [ ]: non-standard residue; d: D form. ξ: configuration not given here. Dmt = Cc1cc(O)cc(C)c1C[C@H](N)C(=O)O; ξTiq(1-COOH) = O=C(O)C1NCCc2ccccc21
Mu-type opioid receptor (Rattus norvegicus) measurements of Ki, listed per entry.

molecule="Cc1cc(O)cc(C)c1C[C@H](N)C(=O)N1CCc2ccccc2C1C(=O)N[C@@H](Cc1c[nH]c2ccccc12)C(=O)N[C@@H](Cc1ccccc1)C(N)=O (some centres undefined) (H-[Dmt][ξTiq(1-COOH)]WF-NH2)" resulttype=Ki result="5 nM"
molecule=NC(=O)[C@H](Cc1ccccc1)NC(=O)C[C@H](Cc1ccccc1)NC(=O)[C@@H]1CCCN1C(=O)[C@@H](N)Cc1ccc(O)cc1 resulttype=Ki result="24 nM"

Please look at NC(=O)[C@H](O)[C@@H](Cc1ccccc1)NC(=O)[C@H](Cc1c[nH]c2ccccc12)NC(=O)[C@@H]1CCCN1C(=O)[C@@H](N)Cc1ccc(O)cc1 and tell me its recorded Ki on Mu-type opioid receptor (Rattus norvegicus).
243 nM

Write Ki of NC(=O)[C@H](O)[C@H](Cc1ccccc1)NC(=O)[C@H](Cc1c[nH]c2ccccc12)NC(=O)[C@@H]1CCCN1C(=O)[C@@H](N)Cc1ccc(O)cc1 ; system used: Mu-type opioid receptor (Rattus norvegicus)
25 nM

* * *

target: Mu-type opioid receptor (Rattus norvegicus)
Where a SMILES comes first, the peptide text is derived from it. [ ]: non-standard residue; d: D form. ξ: configuration not given here. Dmt = Cc1cc(O)cc(C)c1C[C@H](N)C(=O)O; ξTiq(1-COOH) = O=C(O)C1NCCc2ccccc21; β3hF = N[C@H](CC(=O)O)Cc1ccccc1
Label yes when Ki < 20 nM; otherwise no.

Example entries begin here.
molecule=NC(=O)[C@H](Cc1ccccc1)NC(=O)[C@@H](O)[C@H](Cc1ccccc1)NC(=O)[C@@H]1CCCN1C(=O)[C@@H](N)Cc1ccc(O)cc1 discretelabel=no
molecule="Cc1cc(O)cc(C)c1C[C@H](N)C(=O)N1CCc2ccccc2C1C(=O)N[C@@H](Cc1ccccc1)C(=O)N[C@@H](Cc1ccccc1)[C@@H](O)C(N)=O (stereo partly specified)" discretelabel=yes

Lab note: next molecule to report on.
Ki strictly < 20 nM for this molecule? Cc1cc(O)cc(C)c1C[C@H](N)C(=O)N1CCc2ccccc2C1C(=O)N[C@@H](Cc1ccccc1)C(=O)N[C@H](CC(N)=O)Cc1ccccc1 (stereo partly drawn) (H-[Dmt][ξTiq(1-COOH)]F[β3hF]-NH2)
yes
